Parameter pEC50: see the listing below.
Tested on: HCV 1a-H77 subgenomic replicon
PROTOCOL_SUMMARY: microbe, parasite or virus in culture
Type: cell-based, HCV genotype 1a
MEASUREMENT_PARAMETERS: Hepatitis C virus, stable replicon, strain 1a H77, 5% FBS; read-out: 1a H77 5% FBS EC50
Formally, pEC50 is defined as -log10 of the concentration c, with c in mol/L.

CN(C)CCCN(c1cc2oc(-c3ccc(F)cc3)c(C3=NOCCN3)c2cc1C1CC1)S(C)(=O)=O; 7.19
CCOC(=O)CCCCN(c1cc2oc(-c3ccc(F)cc3)c(-c3ncc[nH]3)c2cc1C1CC1)S(C)(=O)=O; 7.91
CC(C)(O)CCN(c1cc2oc(-c3ccc(F)cc3)c(C3=NOCCN3)c2cc1C1CC1)S(C)(=O)=O; 7.90
CCCCN(c1cc2oc(-c3ccc(F)cc3)c(-c3ncc[nH]3)c2cc1C1CC1)S(C)(=O)=O; 7.48
CCCN(c1cc2oc(-c3ccc(F)cc3)c(-c3ncc[nH]3)c2cc1C1CC1)S(C)(=O)=O; 7.61
CS(=O)(=O)N(CCCS(N)(=O)=O)c1cc2oc(-c3ccc(F)cc3)c(C3=NOCCN3)c2cc1C1CC1; 7.35

Okay, now this compound:
Query block: Supply measured pEC50 of CS(=O)(=O)N(CCC1CCS(=O)(=O)C1)c1cc2oc(-c3ccc(F)cc3)c(C3=NOCCN3)c2cc1C1CC1 (stereo not shown) in your reply.
Result block: 7.96

* * *

Test system: HCV 1a-H77 transient subgenomic replicon in Huh-7 derived cell line
PROTOCOL_SUMMARY: microbe, parasite or virus in culture
Assay type: cell-based, HCV genotype 1a
MEASUREMENT_PARAMETERS: Hepatitis C virus, Huh-7; transient replicon, 5% FBS; read-out: Transient Replicon 1a H77 5% FBS EC50
MEASURED_QUANTITY: EC50 (nM)
Give the value, in units of nM, as a plain number.

CS(=O)(=O)N(CCCCO)c1cc2oc(-c3ccc(F)cc3)c(-c3ncc[nH]3)c2cc1C1CC1 [Example 5]; 3
CS(=O)(=O)CCCN(c1cc2oc(-c3ccc(F)cc3)c(-c3ncc[nH]3)c2cc1C1CC1)S(C)(=O)=O [Example 101]; 3.7
CCOC(=O)CCCCN(c1cc2oc(-c3ccc(F)cc3)c(-c3ncc[nH]3)c2cc1C1CC1)S(C)(=O)=O [Example 50]; 9.5

Switching to the query record.
Query block: Determine from records and report EC50 for CS(=O)(=O)N(CCCN1CCS(=O)(=O)CC1)c1cc2oc(-c3ccc(F)cc3)c(C3=NOCCN3)c2cc1C1CC1 [Example 114]
Result block: 21.8

* * *

System: HCV 1b-BB7 subgenomic replicon
PROTOCOL_SUMMARY: microbe, parasite or virus in culture
Assay type: cell-based, HCV genotype 1b
MEASUREMENT_PARAMETERS: Hepatitis C virus, stable replicon, strain 1b BB7, 5% FBS; read-out: 1b BB7 5% FBS EC50
Recorded pEC50 values for a group of compounds are listed next.
In simple prose, pEC50 is minus the logarithm base ten of a concentration in moles per litre.

Some entries whose results are on file:
CS(=O)(=O)N(CC1CC1)c1cc2oc(-c3ccc(F)cc3)c(-c3ncc[nH]3)c2cc1C1CC1; 7.28
CS(=O)(=O)N(CCCCO)c1cc2oc(-c3ccc(F)cc3)c(C3=NOCCN3)c2cc1C1CC1; 8.00
CC(C)CN(c1cc2oc(-c3ccc(F)cc3)c(-c3ncc[nH]3)c2cc1C1CC1)S(C)(=O)=O; 7.25

Query block: Return value of pEC50 for input CS(=O)(=O)N(CCCN1CCOCC1)c1cc2oc(-c3ccc(F)cc3)c(-c3ncc[nH]3)c2cc1C1CC1 , no commentary.
Result block: 8.07

* * *

Listing: EC50 of selected molecules
System: HCV 1b-BB7 subgenomic replicon
PROTOCOL_SUMMARY: microbe, parasite or virus in culture
Assay type: cell-based, HCV genotype 1b
MEASUREMENT_PARAMETERS: Hepatitis C virus, stable replicon, strain 1b BB7, 5% FBS; read-out: 1b BB7 5% FBS EC50
Just the number please, in nM, no unit attached.

Past entries and their recorded results:
CC1NC(c2c(-c3ccc(F)cc3)oc3cc(N(CCS(C)(=O)=O)S(C)(=O)=O)c(C4CC4)cc23)=NO1 (stereo not shown); 11
CC(C)CCN(c1cc2oc(-c3ccc(F)cc3)c(C3=NOCN3)c2cc1C1CC1)S(C)(=O)=O; 70.9
CS(=O)(=O)N(CC1CCCC1)c1cc2oc(-c3ccc(F)cc3)c(-c3ncc[nH]3)c2cc1C1CC1; 65

Query block: Print HCV 1b-BB7 subgenomic replicon EC50 for CCCCCCN(c1cc2oc(-c3ccc(F)cc3)c(-c3ncc[nH]3)c2cc1C1CC1)S(C)(=O)=O .
Result block: 39

* * *

STUDY_SYSTEM: HCV NS5B polymerase 1a-H77-C316Y (Hepatitis C virus genotype 1a, UniProt P27958, C2736Y)
Construct: six-histidine tag
Sequence (P27958 2421-2990 C2736Y): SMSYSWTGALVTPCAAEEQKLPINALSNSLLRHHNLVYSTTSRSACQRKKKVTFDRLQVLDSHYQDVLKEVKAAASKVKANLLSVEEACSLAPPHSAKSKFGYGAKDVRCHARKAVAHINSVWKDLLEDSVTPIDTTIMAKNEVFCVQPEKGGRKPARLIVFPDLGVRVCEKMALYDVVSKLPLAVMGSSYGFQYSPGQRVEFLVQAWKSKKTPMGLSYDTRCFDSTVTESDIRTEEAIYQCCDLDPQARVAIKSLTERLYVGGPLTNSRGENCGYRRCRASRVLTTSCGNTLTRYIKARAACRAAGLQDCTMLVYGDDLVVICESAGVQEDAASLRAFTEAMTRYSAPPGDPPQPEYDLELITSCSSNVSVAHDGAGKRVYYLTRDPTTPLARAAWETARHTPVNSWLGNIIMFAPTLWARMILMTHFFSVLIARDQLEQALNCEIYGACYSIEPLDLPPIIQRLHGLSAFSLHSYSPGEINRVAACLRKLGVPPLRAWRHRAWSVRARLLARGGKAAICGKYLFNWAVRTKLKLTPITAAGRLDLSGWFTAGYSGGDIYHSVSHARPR
PROTOCOL_SUMMARY: biochemical
The threshold is 0.09 µM. Values of IC50 beneath it are tagged Fulfilled; values meeting or exceeding it are tagged Not fulfilled.

CS(=O)(=O)N(CCCO)c1cc2oc(-c3ccc(F)cc3)c(C3=NOCCN3)c2cc1C1CC1 [Example 137]; Fulfilled
CS(=O)(=O)N(CCCC(=O)N1CCOCC1)c1cc2oc(-c3ccc(F)cc3)c(-c3ncc[nH]3)c2cc1C1CC1 [Example 103]; Not fulfilled
CS(=O)(=O)N(CCCC(=O)N1CCCCC1)c1cc2oc(-c3ccc(F)cc3)c(-c3ncc[nH]3)c2cc1C1CC1 [Example 104]; Not fulfilled
CC(C)CN(c1cc2oc(-c3ccc(F)cc3)c(-c3ncc[nH]3)c2cc1C1CC1)S(C)(=O)=O [Example 66]; Not fulfilled
CS(=O)(=O)CCN(c1cc2oc(-c3ccc(F)cc3)c(C3=NOCCN3)c2cc1C1CC1)S(C)(=O)=O [Example 9]; Fulfilled

Here is another compound to look at.
Query block: Hi there! Is IC50 for CC1NC(c2c(-c3ccc(F)cc3)oc3cc(N(CCO)S(C)(=O)=O)c(C4CC4)cc23)=NO1 (centres unmarked) [Example 158] below 0.09 µM, do you know?
Result block: Not fulfilled

* * *

STUDY_SYSTEM: HCV NS5B polymerase 1a-H77-C316Y (Hepatitis C virus genotype 1a, UniProt P27958, C2736Y)
Construct: six-histidine tag
PROTOCOL_SUMMARY: biochemical
MEASURED_QUANTITY: pIC50
Recall that pIC50 is obtained by taking minus log10 of the concentration measured in molar.

Some compounds with known pIC50 results, for comparison:
CS(=O)(=O)N(CCCS(N)(=O)=O)c1cc2oc(-c3ccc(F)cc3)c(C3=NOCN3)c2cc1C1CC1; 7.51
CS(=O)(=O)N(CCCC#N)c1cc2oc(-c3ccc(F)cc3)c(-c3ncc[nH]3)c2cc1C1CC1; 7.28
CS(=O)(=O)N(CCCc1nsc(=O)[nH]1)c1cc2oc(-c3ccc(F)cc3)c(C3=NOCCN3)c2cc1C1CC1; 6.22

Query block: Provide pIC50 value for the following compound: [2H]C([2H])(CCCCC)N(c1cc2oc(-c3ccc(F)cc3)c(-c3ncc[nH]3)c2cc1C1CC1)S(C)(=O)=O
Result block: 6.85

* * *

Test system: HCV 1a-H77 transient subgenomic replicon in Huh-7 derived cell line
PROTOCOL_SUMMARY: microbe, parasite or virus in culture
Assay type: cell-based, HCV genotype 1a
MEASUREMENT_PARAMETERS: Hepatitis C virus, Huh-7; transient replicon, 5% FBS; read-out: Transient Replicon 1a H77 5% FBS EC50
# satisfied = EC50 below 20 nM (exclusive); not satisfied = EC50 at/above 20 nM

Previously resolved entries follow.
CS(=O)(=O)N(CCCCF)c1cc2oc(-c3ccc(F)cc3)c(-c3ncc[nH]3)c2cc1C1CC1 [Example 83]; satisfied
CC(C)CCN(c1cn2nc(-c3ccc(F)cc3)c(-c3ncc[nH]3)c2cc1C1CC1)S(C)(=O)=O [Example 17]; not satisfied
CS(=O)(=O)N(CCC1CCS(=O)(=O)C1)c1cc2oc(-c3ccc(F)cc3)c(C3=NOCN3)c2cc1C1CC1 (stereo not shown) [Example 149]; satisfied
CS(=O)(=O)N(CCCCCO)c1cc2oc(-c3ccc(F)cc3)c(C3=NOCN3)c2cc1C1CC1 [Example 147]; satisfied

Query block: For CS(=O)(=O)N(CCCCCO)c1cc2oc(-c3ccc(F)cc3)c(-c3ncc[nH]3)c2cc1C1CC1 [Example 88] , is the recorded EC50 below the cut-off of 20 nM?
Result block: satisfied

Query block: Below 20 nM on EC50? Entry Cc1ccc(C)n1-c1nc(CCCN(c2cc3oc(-c4ccc(F)cc4)c(-c4ncc[nH]4)c3cc2C2CC2)S(C)(=O)=O)cs1 [Example 62]
Result block: not satisfied
